Molecular target: cGMP-dependent 3',5'-cyclic phosphodiesterase (Homo sapiens, UniProt O00408)
Sequence (O00408 whole entry, the tested form may be a part): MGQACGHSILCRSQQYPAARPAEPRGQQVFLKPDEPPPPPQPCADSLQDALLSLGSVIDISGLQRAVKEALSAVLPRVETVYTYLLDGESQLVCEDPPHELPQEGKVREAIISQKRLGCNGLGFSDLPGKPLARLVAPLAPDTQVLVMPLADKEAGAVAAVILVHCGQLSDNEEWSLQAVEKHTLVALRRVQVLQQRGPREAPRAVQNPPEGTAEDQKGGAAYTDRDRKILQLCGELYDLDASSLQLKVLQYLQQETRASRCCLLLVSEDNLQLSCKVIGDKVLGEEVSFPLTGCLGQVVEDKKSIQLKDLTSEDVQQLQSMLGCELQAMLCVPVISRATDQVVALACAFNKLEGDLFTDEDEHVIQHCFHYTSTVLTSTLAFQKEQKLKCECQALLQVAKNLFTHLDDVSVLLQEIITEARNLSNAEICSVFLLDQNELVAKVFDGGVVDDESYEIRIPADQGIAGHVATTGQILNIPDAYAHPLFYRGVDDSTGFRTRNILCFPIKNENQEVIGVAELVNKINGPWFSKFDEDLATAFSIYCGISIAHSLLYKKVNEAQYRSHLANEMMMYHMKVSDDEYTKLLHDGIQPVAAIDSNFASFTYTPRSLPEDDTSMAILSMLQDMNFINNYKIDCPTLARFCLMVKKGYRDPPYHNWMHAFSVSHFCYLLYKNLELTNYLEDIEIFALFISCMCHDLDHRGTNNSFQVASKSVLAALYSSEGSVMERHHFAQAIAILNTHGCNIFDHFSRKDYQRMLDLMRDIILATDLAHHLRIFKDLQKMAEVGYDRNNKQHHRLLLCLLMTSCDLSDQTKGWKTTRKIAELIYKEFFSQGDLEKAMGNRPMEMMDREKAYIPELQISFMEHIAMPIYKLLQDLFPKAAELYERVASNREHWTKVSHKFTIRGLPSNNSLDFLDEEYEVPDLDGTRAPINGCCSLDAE
Experiment: Inhibition of human PDE2A (580 to 919 residues) expressed in Escherichia coli BL21 codon-plus cells using [3H]cGMP as substrate incubated for 15 mins by liquid scintillation counting method
QUANTITY_MEASURED: IC50

*Q* Name the reported IC50 value associated with the compound COc1c(OCCCCCCC(=O)O)cc2oc3cc4c(c(O)c3c(=O)c2c1CC=C(C)C)C=CC(C)(C)O4
*A* > 10 µM

====

Assay: Tmax in Sprague-Dawley rat at 5 mg/kg, po measured upto 24 hrs by LC-MS/MS analysis
Format: ADME, organism-based
Details: in vivo
QUANTITY_MEASURED: Tmax (h)
Just the number please, in h, no unit attached.

*Q* Name the reported Tmax value associated with the molecule COc1c(OCCCCCCC(=O)O)cc2oc3cc4c(c(O)c3c(=O)c2c1CC=C(C)C)C=CC(C)(C)O4
*A* 4.67

====

Target: UniProt:P20813
Sequence (P20813 whole entry): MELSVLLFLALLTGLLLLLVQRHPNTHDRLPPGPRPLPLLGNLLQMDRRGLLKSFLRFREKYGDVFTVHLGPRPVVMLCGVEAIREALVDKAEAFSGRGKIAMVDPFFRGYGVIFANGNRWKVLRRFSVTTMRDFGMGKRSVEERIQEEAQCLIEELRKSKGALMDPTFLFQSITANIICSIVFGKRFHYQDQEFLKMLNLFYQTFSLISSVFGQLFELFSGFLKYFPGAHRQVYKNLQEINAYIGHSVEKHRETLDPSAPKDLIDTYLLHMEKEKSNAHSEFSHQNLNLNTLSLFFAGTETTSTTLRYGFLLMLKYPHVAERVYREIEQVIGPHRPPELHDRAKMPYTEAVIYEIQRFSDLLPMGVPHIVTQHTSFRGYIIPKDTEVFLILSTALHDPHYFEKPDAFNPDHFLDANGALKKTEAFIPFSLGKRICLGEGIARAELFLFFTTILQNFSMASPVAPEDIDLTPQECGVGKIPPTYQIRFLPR
QUANTITY_MEASURED: IC50

*Q* Name the reported IC50 value associated with the compound COc1c(OCCCCCCC(=O)O)cc2oc3cc4c(c(O)c3c(=O)c2c1CC=C(C)C)C=CC(C)(C)O4
*A* > 10 µM

====

Molecular target: Voltage-gated inwardly rectifying potassium channel KCNH2 (Homo sapiens, UniProt Q12809)
Sequence (Q12809 whole entry): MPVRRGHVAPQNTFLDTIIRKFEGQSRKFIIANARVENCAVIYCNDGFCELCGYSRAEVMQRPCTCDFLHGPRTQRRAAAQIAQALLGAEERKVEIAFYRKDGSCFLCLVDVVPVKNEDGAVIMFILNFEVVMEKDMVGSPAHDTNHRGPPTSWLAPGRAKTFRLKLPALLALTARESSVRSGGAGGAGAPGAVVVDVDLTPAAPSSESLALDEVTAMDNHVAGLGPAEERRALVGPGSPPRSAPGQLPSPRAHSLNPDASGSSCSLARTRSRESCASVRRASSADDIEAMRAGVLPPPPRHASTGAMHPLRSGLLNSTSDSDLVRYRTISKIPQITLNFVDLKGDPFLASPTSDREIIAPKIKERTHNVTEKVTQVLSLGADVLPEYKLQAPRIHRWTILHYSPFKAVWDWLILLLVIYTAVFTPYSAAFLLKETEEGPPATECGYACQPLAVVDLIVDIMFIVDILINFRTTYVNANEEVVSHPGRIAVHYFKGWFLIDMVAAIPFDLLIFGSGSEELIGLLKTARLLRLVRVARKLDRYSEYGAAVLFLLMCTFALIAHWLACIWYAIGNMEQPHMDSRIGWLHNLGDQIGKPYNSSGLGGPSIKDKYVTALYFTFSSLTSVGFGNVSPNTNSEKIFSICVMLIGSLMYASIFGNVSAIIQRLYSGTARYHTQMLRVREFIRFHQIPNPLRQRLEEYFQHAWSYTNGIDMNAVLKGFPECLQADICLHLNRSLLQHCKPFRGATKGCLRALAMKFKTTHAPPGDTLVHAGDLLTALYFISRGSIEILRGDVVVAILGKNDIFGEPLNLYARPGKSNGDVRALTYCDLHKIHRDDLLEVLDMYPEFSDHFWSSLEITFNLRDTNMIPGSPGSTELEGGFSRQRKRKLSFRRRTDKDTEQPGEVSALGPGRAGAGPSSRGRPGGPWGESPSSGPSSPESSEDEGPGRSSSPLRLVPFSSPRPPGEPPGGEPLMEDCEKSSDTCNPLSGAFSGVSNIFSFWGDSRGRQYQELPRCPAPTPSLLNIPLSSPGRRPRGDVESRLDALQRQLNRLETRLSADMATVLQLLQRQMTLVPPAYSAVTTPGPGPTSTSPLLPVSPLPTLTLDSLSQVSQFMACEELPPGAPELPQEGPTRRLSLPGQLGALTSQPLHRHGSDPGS
Experiment: Inhibition of human ERG expressed in CHO cells by automated patch clamp electrophysiology
QUANTITY_MEASURED: IC50

*Q* Name the reported IC50 value associated with the molecule COc1c(OCCCCCCC(=O)O)cc2oc3cc4c(c(O)c3c(=O)c2c1CC=C(C)C)C=CC(C)(C)O4
*A* > 30 µM

====

Target: cGMP-specific 3',5'-cyclic phosphodiesterase (Homo sapiens, UniProt O76074)
QUANTITY_MEASURED: IC50 (µM)
Just the number please, in µM, no unit attached.

*Q* Name the reported IC50 value associated with the molecule COc1c(OCCCCCCC(=O)O)cc2oc3cc4c(c(O)c3c(=O)c2c1CC=C(C)C)C=CC(C)(C)O4
*A* 3.39

====

Molecular target: 3',5'-cyclic-AMP phosphodiesterase 4B (Homo sapiens, UniProt Q07343)
Sequence (Q07343 whole entry, the tested form may be a part): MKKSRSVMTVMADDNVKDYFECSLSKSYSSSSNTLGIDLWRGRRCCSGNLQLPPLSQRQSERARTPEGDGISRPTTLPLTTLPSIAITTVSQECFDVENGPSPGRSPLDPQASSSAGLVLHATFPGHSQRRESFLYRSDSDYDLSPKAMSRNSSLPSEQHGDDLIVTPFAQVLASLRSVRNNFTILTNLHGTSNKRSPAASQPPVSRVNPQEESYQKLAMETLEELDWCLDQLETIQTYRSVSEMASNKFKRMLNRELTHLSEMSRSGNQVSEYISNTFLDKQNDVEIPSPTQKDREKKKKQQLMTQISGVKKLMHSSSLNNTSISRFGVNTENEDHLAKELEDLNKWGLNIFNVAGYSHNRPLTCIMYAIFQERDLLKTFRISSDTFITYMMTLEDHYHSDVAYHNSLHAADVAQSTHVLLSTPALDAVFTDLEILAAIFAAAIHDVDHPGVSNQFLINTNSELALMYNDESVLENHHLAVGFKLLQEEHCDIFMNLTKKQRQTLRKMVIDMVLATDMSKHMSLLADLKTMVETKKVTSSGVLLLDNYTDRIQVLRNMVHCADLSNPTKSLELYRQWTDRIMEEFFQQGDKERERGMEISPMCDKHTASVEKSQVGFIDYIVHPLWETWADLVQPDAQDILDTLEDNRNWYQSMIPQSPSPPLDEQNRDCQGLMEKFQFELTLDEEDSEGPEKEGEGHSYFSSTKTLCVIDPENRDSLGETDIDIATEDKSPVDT
Assay: Inhibition of human PDE4B1 (1 to 736 residues) expressed in Escherichia coli BL21 codon-plus cells using [3H]cAMP as substrate incubated for 15 mins by liquid scintillation counting method
QUANTITY_MEASURED: IC50 (nM)
Just the number please, in nM, no unit attached.

*Q* Name the reported IC50 value associated with the compound COc1c(OCCCCCCC(=O)O)cc2oc3cc4c(c(O)c3c(=O)c2c1CC=C(C)C)C=CC(C)(C)O4
*A* 8

====

Assay: Oral bioavailability in Sprague-Dawley rat at 5 mg/kg measured upto 24 hrs by LC-MS/MS analysis
Format: ADME, organism-based
Settings: in vivo
QUANTITY_MEASURED: bioavailability (%)
Just the number please, in %, no unit attached.

*Q* Name the reported bioavailability value associated with the molecule COc1c(OCCCCCCC(=O)O)cc2oc3cc4c(c(O)c3c(=O)c2c1CC=C(C)C)C=CC(C)(C)O4
*A* 28

====

Target: Cytochrome P450 3A4 (Homo sapiens, UniProt P08684)
QUANTITY_MEASURED: IC50

*Q* Name the reported IC50 value associated with the compound COc1c(OCCCCCCC(=O)O)cc2oc3cc4c(c(O)c3c(=O)c2c1CC=C(C)C)C=CC(C)(C)O4
*A* > 10 µM

====

Molecular target: Cytochrome P450 2C9 (Homo sapiens)
Sequence (P11712 whole entry): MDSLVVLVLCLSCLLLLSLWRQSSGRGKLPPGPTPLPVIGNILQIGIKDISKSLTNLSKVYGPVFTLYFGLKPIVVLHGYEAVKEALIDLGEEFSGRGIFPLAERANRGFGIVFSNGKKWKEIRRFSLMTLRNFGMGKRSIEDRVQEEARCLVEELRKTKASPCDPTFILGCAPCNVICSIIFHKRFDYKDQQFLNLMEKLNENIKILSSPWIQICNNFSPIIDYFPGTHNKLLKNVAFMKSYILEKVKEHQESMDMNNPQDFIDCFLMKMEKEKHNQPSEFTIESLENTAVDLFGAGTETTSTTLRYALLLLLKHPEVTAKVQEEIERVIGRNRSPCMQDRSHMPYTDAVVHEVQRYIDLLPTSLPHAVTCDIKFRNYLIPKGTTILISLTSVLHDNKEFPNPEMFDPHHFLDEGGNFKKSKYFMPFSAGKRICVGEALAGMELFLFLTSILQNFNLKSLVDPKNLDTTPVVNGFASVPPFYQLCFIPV
QUANTITY_MEASURED: IC50

*Q* Identify the measured IC50 of COc1c(OCCCCCCC(=O)O)cc2oc3cc4c(c(O)c3c(=O)c2c1CC=C(C)C)C=CC(C)(C)O4 for Cytochrome P450 2C9 (Homo sapiens).
*A* > 10 µM

====

// each record: one item and its log10 IC50 for 3',5'-cyclic-AMP phosphodiesterase 4D (Homo sapiens)
Values reflect log10 of reported IC50 (µM).

1) COc1c(OCCCCCCC(=O)O)cc2oc3cc4c(c(O)c3c(=O)c2c1CC=C(C)C)C=CC(C)(C)O4 :: -1.77
2) COc1c(O)cc2oc3cc(O)c(CC=C(C)C)c(O)c3c(=O)c2c1CC=C(C)C :: 0.12
3) COc1c(OCCCCCCCC(=O)O)cc2oc3cc4c(c(O)c3c(=O)c2c1CC=C(C)C)C=CC(C)(C)O4 :: -1.80

*Q* Name the reported log10 IC50 value associated with the molecule COc1c(O)cc2oc3cc4c(c(O)c3c(=O)c2c1CC=C(C)C)C=CC(C)(C)O4
*A* -0.38

*Q* Lookup COc1c(OCCCCCN2CCCC2)cc2oc3cc4c(c(O)c3c(=O)c2c1CC=C(C)C)C=CC(C)(C)O4
*A* -0.70

====

Biological target: Phosphodiesterase isozyme 4 (Homo sapiens, UniProt Q86V67)
Sequence (Q86V67 whole entry): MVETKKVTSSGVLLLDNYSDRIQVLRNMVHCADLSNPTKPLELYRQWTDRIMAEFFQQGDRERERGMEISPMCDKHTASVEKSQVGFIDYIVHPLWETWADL
QUANTITY_MEASURED: IC50 (µM)
Just the number please, in µM, no unit attached.

*Q* Name the reported IC50 value associated with the compound C=C(C)[C@@H]1CC[C@]2(C(=O)O)CC[C@]3(C)[C@H](CC[C@@H]4[C@@]5(C)CC[C@H](O)C(C)(C)[C@@H]5CC[C@]43C)[C@@H]12 [BETULINIC ACID]
*A* 125

====

Assay: Half life in Sprague-Dawley rat at 5 mg/kg, po measured upto 24 hrs by LC-MS/MS analysis
Assay type: ADME, organism-based
Conditions: in vivo
QUANTITY_MEASURED: half-life (min)
Just the number please, in min, no unit attached.

*Q* Name the reported half-life value associated with the compound COc1c(OCCCCCCC(=O)O)cc2oc3cc4c(c(O)c3c(=O)c2c1CC=C(C)C)C=CC(C)(C)O4
*A* 209

====

Target: High affinity cGMP-specific 3',5'-cyclic phosphodiesterase 9A (Homo sapiens)
Sequence (O76083 whole entry): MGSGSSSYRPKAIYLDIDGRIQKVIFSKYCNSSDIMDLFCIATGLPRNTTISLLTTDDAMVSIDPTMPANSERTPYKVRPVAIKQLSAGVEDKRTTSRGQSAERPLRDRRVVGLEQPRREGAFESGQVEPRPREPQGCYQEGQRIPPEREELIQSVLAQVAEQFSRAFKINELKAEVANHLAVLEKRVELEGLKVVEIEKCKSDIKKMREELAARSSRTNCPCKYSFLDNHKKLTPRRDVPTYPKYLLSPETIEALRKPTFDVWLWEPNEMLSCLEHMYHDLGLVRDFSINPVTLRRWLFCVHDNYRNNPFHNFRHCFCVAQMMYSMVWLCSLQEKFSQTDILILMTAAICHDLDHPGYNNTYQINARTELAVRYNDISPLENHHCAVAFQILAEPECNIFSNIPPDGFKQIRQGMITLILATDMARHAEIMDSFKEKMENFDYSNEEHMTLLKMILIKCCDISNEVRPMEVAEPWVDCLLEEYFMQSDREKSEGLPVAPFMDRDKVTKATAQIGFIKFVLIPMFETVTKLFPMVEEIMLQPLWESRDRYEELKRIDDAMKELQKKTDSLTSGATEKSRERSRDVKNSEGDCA
pIC50: −log10 of the molar value.
QUANTITY_MEASURED: pIC50

*Q* Name the reported pIC50 value associated with the molecule COc1c(OCCCCCCC(=O)O)cc2oc3cc4c(c(O)c3c(=O)c2c1CC=C(C)C)C=CC(C)(C)O4
*A* < 5.00

====

Target: cAMP and cAMP-inhibited cGMP 3',5'-cyclic phosphodiesterase 10A (Homo sapiens)
pIC50: −log10 of the molar value.
QUANTITY_MEASURED: pIC50

*Q* Name the reported pIC50 value associated with the compound COc1c(OCCCCCCC(=O)O)cc2oc3cc4c(c(O)c3c(=O)c2c1CC=C(C)C)C=CC(C)(C)O4
*A* < 5.00

====

Molecular target: Cytochrome P450 1A2 (Homo sapiens, UniProt P05177)
pIC50: −log10 of the molar value.
QUANTITY_MEASURED: pIC50

*Q* Name the reported pIC50 value associated with the compound COc1c(OCCCCCCC(=O)O)cc2oc3cc4c(c(O)c3c(=O)c2c1CC=C(C)C)C=CC(C)(C)O4
*A* < 5.00

====

Test: Inhibition of human PDE4D7 (1 to 748 residues) expressed in Escherichia coli BL21 codon-plus cells using [3H]cAMP as substrate incubated for 15 mins by liquid scintillation counting method
QUANTITY_MEASURED: IC50
# output: number + unit

*Q* Name the reported IC50 value associated with the compound COc1c(OCCCCCCC(=O)O)cc2oc3cc4c(c(O)c3c(=O)c2c1CC=C(C)C)C=CC(C)(C)O4
*A* 9 nM
